The values you see were collected from ChEMBL document CHEMBL2203012.

EXPERIMENTAL DETAILS: Octanol-water partition coefficient, log P of the compound
Format: physicochemical
logP vs 4: at or above is rule met, below is rule not met.

Consider the following illustrative entries.
CHEMICAL STRUCTURE	ASSIGNED CATEGORY
CC(=O)Nc1nc2ccccc2s1	rule not met
c1ccc(CNc2nc3ccccc3s2)cc1	rule met
COC(=O)Nc1nc2ccccc2s1	rule not met
CCCCC(=O)Nc1nc2ccccc2s1	rule not met
CNc1nc2ccccc2s1	rule not met

Please examine the following record next.
Q) Check this compound for logP at or above 4: "CC(C)CC(=O)Nc1nc2ccccc2s1"
A) rule not met

---

EXPERIMENTAL DETAILS: Lipophilicity, log K of the compound in methanol-water mixture by RP-HPLC
Format: physicochemical
PROPERTY MEASURED: log K
Enter the number alone.

Some molecules with known log K results, for comparison:
CHEMICAL STRUCTURE	QUANTITATIVE RESULT
CC(C)CC(=O)Nc1nc2ccccc2s1	0.5598
O=C(Nc1nc2ccccc2s1)c1ccccc1	0.6643
c1ccc(CNc2nc3ccccc3s2)cc1	0.6012
COC(=O)Nc1nc2ccccc2s1	0.4251
O=C(Nc1nc2ccccc2s1)C1CCCCC1	0.688
CCCCC(=O)Nc1nc2ccccc2s1	0.578
CC(C)(C)C(=O)Nc1nc2ccccc2s1	0.5891
CNc1nc2ccccc2s1	0.3819

According to the records, this molecule "O=C(Cc1ccccc1)Nc1nc2ccccc2s1" displays log K of 0.5413

According to the records, this molecule "CC(=O)Nc1nc2ccccc2s1" displays log K of 0.3661
